# System: DHFR (human against Plasmodium falciparum DHFR N51I/C59R/S108N/I164L mutant)
# assay-procedure: Selectivity index, ratio of Ki for human DHFR expressed in Escherichia coli BL21 to Ki for Plasmodium falciparum DHFR N51I/C59R/S108N/I164L mutant expressed in Escherichia coli BL21
# Assay type: toxicity
# assay-context: read-out: Ratio Ki
Labelling: selectivity ratio reported below 20 becomes True; at or above becomes False.

Hello, I'm reviewing records and need to know if selectivity ratio of CC1(C)N=C(N)N=C(N)N1OCCCSc1cccc(Cl)c1 is below 20. Could you check? False

Consider CC1(C)N=C(N)N=C(N)N1OCCCOc1ccc(Cl)cc1 . Does its selectivity ratio lie strictly below 20? False

Identify whether the molecule CN(CCCON1C(N)=NC(N)=NC1(C)C)c1ccc(Cl)cc1 records selectivity ratio below 20. True

Quick check: does CC1(C)N=C(N)N=C(N)N1OCCSc1ccc(Cl)cc1 have selectivity ratio under 20? True

Lab note: selectivity ratio threshold 20. Does this molecule come in strictly under it? CC1(C)NC(N)=NC(=N)N1OCCCSc1ccccc1 False

Strictly below 20: is that where selectivity ratio of CC1(C)NC(N)=NC(=N)N1OCCc1ccccc1 sits? True

For CN(CCCON1C(N)=NC(N)=NC1(C)C)c1ccc(Cl)c(Cl)c1 , is the recorded selectivity ratio below the cut-off of 20? True

Quick check: does CC1(C)N=C(N)N=C(N)N1OCCCOc1ccccc1 have selectivity ratio under 20? True

Record CC1(C)N=C(N)N=C(N)N1OCCCSc1ccc(Cl)cc1 : is its selectivity ratio strictly below 20? False

Identify whether the molecule CC1(C)N=C(N)N=C(N)N1OCCCOc1cc(Cl)c(Cl)cc1Cl records selectivity ratio below 20. True

Is selectivity ratio of CC1N=C(N)N=C(N)N1OCCCOc1ccc(Cl)cc1 (centres undefined) strictly below 20? False

Report whether reported selectivity ratio is lower than 20 (strictly) for CC1N=C(N)N=C(N)N1OCCCOc1ccc(F)cc1Cl (centres undefined) False

API: query returns whether the molecule falls strictly under 20 in selectivity ratio. Query: CC1(C)N=C(N)N=C(N)N1OCCCc1ccccc1 True

Please state whether selectivity ratio is below 20 for CC1(C)NC(N)=NC(=N)N1OCCCCOc1ccccc1 False

Field: below-cutoff. Rule: recorded selectivity ratio strictly less than 20. Subject: CC1(C)N=C(N)N=C(N)N1OCCCSc1ccccc1Cl False

# strict comparison: is reported selectivity ratio < 20? input = CC1N=C(N)N=C(N)N1OCCCOc1cc(Cl)c(Cl)cc1Cl (centres undefined) False

Threshold test, selectivity ratio < 20: NC1=NC(c2ccccc2)N(OCCCOc2cc(Cl)c(Cl)cc2Cl)C(N)=N1 (centres undefined) False

Does the reported selectivity ratio of CC1(C)N=C(N)N=C(N)N1OCCCNc1ccc(Cl)c(Cl)c1 stay below 20? True

hey, is selectivity ratio for CC1(C)N=C(N)N=C(N)N1OCCCCc1ccccc1 lower than 20 or not? True

###

# assay-procedure: Therapeutic index, ratio of IC50 for African green monkey Vero cells to IC50 for Plasmodium falciparum K1CB1 harboring DHFR […] mutant
# Assay type: toxicity
# assay-context: read-out: Ratio IC50
For each entry below, report its selectivity ratio value.
Answer field: number only, no words.

Please look up its selectivity ratio: CC1(C)N=C(N)N=C(N)N1OCCCSc1ccc(Cl)cc1 2970

Entry CC1(C)N=C(N)N=C(N)N1OCCCCc1ccccc1 has what selectivity ratio? 874

Given the compound CC1(C)N=C(N)N=C(N)N1OCCCSc1cccc(Cl)c1 , what is its reported selectivity ratio? 709

# get_value(readout='selectivity ratio', item= CN(CCCON1C(N)=NC(N)=NC1(C)C)c1ccc(Cl)cc1 ) 918

Item NC1=NC(c2ccccc2)N(OCCCOc2cc(Cl)c(Cl)cc2Cl)C(N)=N1 (stereo not given) has what recorded selectivity ratio? 570

# query: selectivity ratio of entry CC1(C)N=C(N)N=C(N)N1OCCCc1ccccc1 323

###

# assay-procedure: Inhibition of Plasmodium falciparum DHFR N51I/C59R/S108N/I164L mutant expressed in Escherichia coli BL21 using DHF as substrate by spectrophotometric analysis
I'd appreciate it if you could label each record using Ki and these ranges: low = under 2 nM, intermediate = from 2 nM up to 10 nM, high = 10 nM and over

Classify this compound: CC1(C)N=C(N)N=C(N)N1OCC(=O)Nc1ccc(Cl)cc1 intermediate

Entry CC1(C)N=C(N)N=C(N)N1OCCCOCc1ccccc1 belongs to which category? intermediate

Using the reported Ki, which band applies to CC1(C)N=C(N)N=C(N)N1OCCCOc1ccccc1 ? low

Hello team, could you let me know which band the following compound falls into: CC1N=C(N)N=C(N)N1OCCCOc1cc(Cl)c(Cl)cc1Cl (stereo not given) low

Which band does CC1(C)N=C(N)N=C(N)N1OCCCCOCc1ccccc1 fall in? high

Class for CC1(C)N=C(N)N=C(N)N1OCCCNC(=O)c1ccccc1 ? high

Input CN(CCCON1C(N)=NC(N)=NC1(C)C)c1ccc(Cl)cc1 ; output its category intermediate

Kindly identify the class of CC1(C)N=C(N)N=C(N)N1OCCCNc1ccc(Cl)c(Cl)c1 . intermediate

Band of CC1(C)N=C(N)N=C(N)N1OCCSc1ccc(Cl)cc1 ? intermediate

Band for the recorded Ki of CC1(C)N=C(N)N=C(N)N1OCCCCc1ccccc1 ? intermediate

Categorize the following entry: CC1(C)N=C(N)N=C(N)N1OCCCSC1CCCCC1 low

// return the class label for CC1N=C(N)N=C(N)N1OCCCOc1ccc(Cl)cc1 (stereo not given) low

Classify this compound: CC1(C)N=C(N)N=C(N)N1OCCCSc1ccccc1Cl low

Band for NC1=NC(c2ccccc2)N(OCCc2ccccc2)C(N)=N1 (stereo not given) ? high

Where would NC1=NC(c2ccccc2)N(OCCCOc2cc(Cl)c(Cl)cc2Cl)C(N)=N1 (stereo not given) land among the classes by reported Ki? low

Into which bin does this compound go? CC1(C)N=C(N)N=C(N)N1OCCCSc1cccc(Cl)c1 low

# bin lookup: classify CC1(C)N=C(N)N=C(N)N1OCCCOc1cc(Cl)c(Cl)cc1Cl by its Ki low

Entry Cc1ccc(C)c(NCCCON2C(N)=NC(N)=NC2(C)C)c1 belongs to which category? intermediate

Into which bin does this compound go? CC1(C)N=C(N)N=C(N)N1OCCCN(Cc1ccccc1)c1ccc(Cl)c(Cl)c1 low

# classify by Ki band: CCN(CCCON1C(N)=NC(N)=NC1(C)C)c1ccc(Cl)c(Cl)c1 intermediate

Returns: class label. Input: Cc1ccc(S(=O)(=O)NCCCON2C(N)=NC(N)=NC2(C)C)cc1 high

Record CC1N=C(N)N=C(N)N1OCCCOc1ccc(F)cc1Cl (stereo not given) — which class? low

GET /class?item= CC1N=C(N)N=C(N)N1OCCCOc1cccc(Cl)c1Cl (stereo not given) low

Please indicate the class for CC1(C)N=C(N)N=C(N)N1OCCCNc1ccccc1 based on its Ki. intermediate

Record CC1(C)N=C(N)N=C(N)N1OCCCOc1cccc(Cl)c1Cl — which class? low

Returns: class label. Input: CC1(C)N=C(N)N=C(N)N1OCCCOc1ccc(F)cc1Cl low

Quick check: band for NC1=NC(c2ccccc2)N(CCCOc2cc(Cl)c(Cl)cc2Cl)C(N)=N1 (stereo not given) intermediate

Note: place this compound into its band. Item: CC1(C)N=C(N)N=C(N)N1OCC(=O)NCc1ccc(Cl)cc1 high

// bin(item) where item = CC1(C)N=C(N)N=C(N)N1OCCNS(=O)(=O)c1ccccc1 high

Using the reported Ki, which band applies to CCN(CC)CCCON1C(N)=NC(N)=NC1(C)C ? intermediate

For this compound, which bin applies? CC1(C)N=C(N)N=C(N)N1c1ccc(Cl)cc1 high

Could you place Cc1ccc(S(=O)(=O)NCCON2C(N)=NC(N)=NC2(C)C)cc1 in its proper category? Many thanks. high

Returns: class label. Input: CC1(C)NC(N)=NC(=N)N1OCCc1ccccc1 high

Classify this compound: NC1=NC(c2ccccc2)N(OCCCc2ccccc2)C(N)=N1 (stereo not given) intermediate

Form field 'band' for CC1(C)N=C(N)N=C(N)N1OCCCNS(=O)(=O)c1ccccc1 high

Assign a bin to CC1(C)N=C(N)N=C(N)N1OCCCOc1ccc(Cl)cc1 low

For this compound, which bin applies? CC1(C)N=C(N)N=C(N)N1OCC(=O)Nc1ccccc1 high

Exam item: assign CN(CCCON1C(N)=NC(N)=NC1(C)C)c1ccc(Cl)c(Cl)c1 to the correct category. intermediate

Quick check: band for CC1(C)N=C(N)N=C(N)N1OCCCN(Cc1ccccc1)Cc1ccccc1 intermediate

Category lookup for the compound CC1(C)N=C(N)N=C(N)N1OCCOc1cc(Cl)c(Cl)cc1Cl high

Kindly state the category for this compound: CC1(C)N=C(N)N=C(N)N1OCCCSc1ccc(Cl)cc1 low

# classify by Ki band: CC1(C)N=C(N)N=C(N)N1OCCNS(=O)(=O)c1ccc([N+](=O)[O-])cc1 high

Input CC1(C)N=C(N)N=C(N)N1OCCNS(=O)(=O)c1ccc(Cl)cc1 ; output its category high
